- Test system: Trichophyton mentagrophytes
- ASSAY COMMENT: Antimicrobial activity against Trichophyton mentagrophytes IFM62679 assessed as reduction in […] growth incubated for 48 hrs by microbroth dilution method
- Assay type: functional
- COND: IFM62679, 48 h
METRIC: IC50 (µg/mL)
Numeric only. Scale: µg/mL

# STRUCTURE SMILES, IC50, µg/mL
data = [
    ("CN[C@H]1C[C@@H](N)[C@H](O)[C@@H](O[C@@H]2O[C@H](CO)[C@H](O)[C@H]3O[C@@]4(O[C@H]23)O[C@H]([C@H](N)CO)[C@H](O)[C@H](O)[C@H]4O)[C@@H]1O", 1),
]

Requested read-out: IC50. Entry: "NC[C@H]1O[C@H](O[C@H]2[C@H](O)[C@@H](O[C@H]3O[C@H](CO)[C@@H](O)[C@H](N)[C@H]3O)[C@H](N)C[C@@H]2N)[C@H](O)[C@@H](O)[C@@H]1O" 7.8

Requested read-out: IC50. Entry: "C[C@@H]1[C@H](O)[C@@H](C)/C=C/C=C/C=C/C=C/C=C/C=C/C=C/[C@H](O[C@@H]2O[C@H](C)[C@@H](O)[C@H](N)[C@@H]2O)C[C@@H]2O[C@](O)(C[C@@H](O)C[C@@H](O)[C@H](O)CC[C@@H](O)C[C@@H](O)CC(=O)O[C@H]1C)C[C@H](O)[C@H]2C(=O)O" 3.9

Requested read-out: IC50. Entry: "CC(C)=CC[C@@H]1C[C@@]2(CC=C(C)C)C(=O)C3(CC=C(C)C)C[C@]1(C)[C@]2(O)/C(=C(/O)c1ccccc1)C3=O" 8
